- Test system: Enterococcus faecalis
- Run Description: Tested in vitro for its antibacterial activity against vancomycin resistant Enterococcus faecalis (MB4877)
- Format: functional
Endpoint Label: MIC (µg/mL)
One number for each entry, in µg/mL.

Here's what some known entries look like.
# Molecule, Study System, MIC (µg/mL)
measured = [
    ("CN[C@H](CC(C)C)C(=O)N[C@H]1C(=O)N[C@@H](CC(N)=O)C(=O)N[C@H]2C(=O)N[C@H]3C(=O)N[C@H](C(=O)N[C@H](C(=O)O)c4cc(O)cc(O)c4-c4cc3ccc4O)[C@H](O)c3ccc(c(Cl)c3)Oc3cc2cc(c3OC2OC(CN(C)C)C(O)C(O)C2OC2CC(C)(NCc3ccc(OCc4ccc(Cl)c(Cl)c4)cc3)C(O)C(C)O2)Oc2ccc(cc2Cl)[C@H]1O (some centres undefined)", "Enterococcus faecalis", 16),
    ("CN[C@H](CC(C)C)C(=O)N[C@H]1C(=O)N[C@@H](CC(N)=O)C(=O)N[C@H]2C(=O)N[C@H]3C(=O)N[C@H](C(=O)N[C@H](C(=O)O)c4cc(O)cc(O)c4-c4cc3ccc4O)[C@H](O)c3ccc(c(Cl)c3)Oc3cc2cc(c3OC2OC(C[N+](C)(C)C)C(O)C(O)C2OC2CC(C)(NCc3ccc(OCc4ccc(Cl)c(Cl)c4)cc3)C(O)C(C)O2)Oc2ccc(cc2Cl)[C@H]1O (some centres undefined)", "Enterococcus faecalis", 16),
]

Continue with the next molecule.
Data request: // lookup MIC for CN[C@H](CC(C)C)C(=O)N[C@H]1C(=O)N[C@@H](CC(N)=O)C(=O)N[C@H]2C(=O)N[C@H]3C(=O)N[C@H](C(=O)N[C@H](C(=O)O)c4cc(O)cc(O)c4-c4cc3ccc4O)[C@H](O)c3ccc(c(Cl)c3)Oc3cc2cc(c3OC2OC(C[N+]34CCN(CC3)CC4)C(O)C(O)C2OC2CC(C)(NCc3ccc(OCc4ccc(Cl)c(Cl)c4)cc3)C(O)C(C)O2)Oc2ccc(cc2Cl)[C@H]1O (some centres undefined)
Data returned: 8

====

- System: Enterococcus faecalis
- Run Description: Tested in vitro for its antibacterial activity against vancomycin resistant Enterococcus faecalis (MB4877)
- Format: functional
Endpoint Label: MIC (µg/mL)
Answers are plain numbers, in µg/mL.

Data request: Give the reported MIC for CN[C@H](CC(C)C)C(=O)N[C@H]1C(=O)N[C@@H](CC(N)=O)C(=O)N[C@H]2C(=O)N[C@H]3C(=O)N[C@H](C(=O)N[C@H](C(=O)O)c4cc(O)cc(O)c4-c4cc3ccc4O)[C@H](O)c3ccc(c(Cl)c3)Oc3cc2cc(c3OC2OC(C[N+](C)(C)Cc3ccccc3)C(O)C(O)C2OC2CC(C)(NCc3ccc(OCc4ccc(Cl)c(Cl)c4)cc3)C(O)C(C)O2)Oc2ccc(cc2Cl)[C@H]1O (stereo partly specified) (system: Enterococcus faecalis).
Data returned: 16

====

- System: Enterococcus faecalis
- Run Description: Tested in vitro for its antibacterial activity against vancomycin resistant Enterococcus faecalis (MB4877)
- Format: functional
Provide the reported MIC of each item.
Answers are plain numbers, in µg/mL.

# Molecule, Unit Text, MIC
rows = [
    ("CN[C@H](CC(C)C)C(=O)N[C@H]1C(=O)N[C@@H](CC(N)=O)C(=O)N[C@H]2C(=O)N[C@H]3C(=O)N[C@H](C(=O)N[C@H](C(=O)O)c4cc(O)cc(O)c4-c4cc3ccc4O)[C@H](O)c3ccc(c(Cl)c3)Oc3cc2cc(c3OC2OC(C[N+](C)(C)CCO)C(O)C(O)C2OC2CC(C)(NCc3ccc(OCc4ccc(Cl)c(Cl)c4)cc3)C(O)C(C)O2)Oc2ccc(cc2Cl)[C@H]1O (stereo partly drawn)", "µg/mL", 8),
    ("CNCC1OC(Oc2c3cc4cc2Oc2ccc(cc2Cl)[C@@H](O)[C@@H](NC(=O)[C@@H](CC(C)C)NC)C(=O)N[C@@H](CC(N)=O)C(=O)N[C@H]4C(=O)N[C@H]2C(=O)N[C@H](C(=O)N[C@H](C(=O)O)c4cc(O)cc(O)c4-c4cc2ccc4O)[C@H](O)c2ccc(c(Cl)c2)O3)C(OC2CC(C)(NCc3ccc(OCc4ccc(Cl)c(Cl)c4)cc3)C(O)C(C)O2)C(O)C1O (stereo partly drawn)", "µg/mL", 4),
]

For the next question, use this molecule.
Data request: Value lookup for MIC; key = "CN[C@H](CC(C)C)C(=O)N[C@H]1C(=O)N[C@@H](CC(N)=O)C(=O)N[C@H]2C(=O)N[C@H]3C(=O)N[C@H](C(=O)N[C@H](C(=O)O)c4cc(O)cc(O)c4-c4cc3ccc4O)[C@H](O)c3ccc(c(Cl)c3)Oc3cc2cc(c3O[C@@H]2O[C@H](CO)[C@@H](O)[C@H](O)[C@H]2O[C@H]2C[C@](C)(N)[C@H](O)[C@H](C)O2)Oc2ccc(cc2Cl)[C@H]1O"
Data returned: 2050

====

- Test system: Enterococcus faecium
- Run Description: Tested in vitro for its antibacterial activity against vancomycin resistant Enterococcus faecium (MB5244)
- Assay type: functional
Endpoint Label: MIC (µg/mL)
Numbers only, in µg/mL.

Data request: If you can, please state the reported MIC value of CN[C@H](CC(C)C)C(=O)N[C@H]1C(=O)N[C@@H](CC(N)=O)C(=O)N[C@H]2C(=O)N[C@H]3C(=O)N[C@H](C(=O)N[C@H](C(=O)O)c4cc(O)cc(O)c4-c4cc3ccc4O)[C@H](O)c3ccc(c(Cl)c3)Oc3cc2cc(c3O[C@@H]2O[C@H](CO)[C@@H](O)[C@H](O)[C@H]2O[C@H]2C[C@](C)(N)[C@H](O)[C@H](C)O2)Oc2ccc(cc2Cl)[C@H]1O [VANCOMYCIN] .
Data returned: 16

====

- System: Enterococcus faecium
- Run Description: Tested in vitro for its antibacterial activity against vancomycin resistant Enterococcus faecium (MB5244)
- Type: functional
Endpoint Label: MIC (mg/L)
Numbers only, in mg/L.

Use the examples below as a reference point.
# Compound, MIC, mg/L
records = [
    ("CNCC1OC(Oc2c3cc4cc2Oc2ccc(cc2Cl)[C@@H](O)[C@@H](NC(=O)[C@@H](CC(C)C)NC)C(=O)N[C@@H](CC(N)=O)C(=O)N[C@H]4C(=O)N[C@H]2C(=O)N[C@H](C(=O)N[C@H](C(=O)O)c4cc(O)cc(O)c4-c4cc2ccc4O)[C@H](O)c2ccc(c(Cl)c2)O3)C(OC2CC(C)(NCc3ccc(OCc4ccc(Cl)c(Cl)c4)cc3)C(O)C(C)O2)C(O)C1O (some centres undefined)", 1),
    ("CN[C@H](CC(C)C)C(=O)N[C@H]1C(=O)N[C@@H](CC(N)=O)C(=O)N[C@H]2C(=O)N[C@H]3C(=O)N[C@H](C(=O)N[C@H](C(=O)O)c4cc(O)cc(O)c4-c4cc3ccc4O)[C@H](O)c3ccc(c(Cl)c3)Oc3cc2cc(c3OC2OC(C[N+](C)(C)CCO)C(O)C(O)C2OC2CC(C)(NCc3ccc(OCc4ccc(Cl)c(Cl)c4)cc3)C(O)C(C)O2)Oc2ccc(cc2Cl)[C@H]1O (some centres undefined)", 4),
    ("CN[C@H](CC(C)C)C(=O)N[C@H]1C(=O)N[C@@H](CC(N)=O)C(=O)N[C@H]2C(=O)N[C@H]3C(=O)N[C@H](C(=O)N[C@H](C(=O)O)c4cc(O)cc(O)c4-c4cc3ccc4O)[C@H](O)c3ccc(c(Cl)c3)Oc3cc2cc(c3OC2OC(C[N+](C)(C)CCN(C)C)C(O)C(O)C2OC2CC(C)(NCc3ccc(OCc4ccc(Cl)c(Cl)c4)cc3)C(O)C(C)O2)Oc2ccc(cc2Cl)[C@H]1O (some centres undefined)", 8),
]

Data request: Requested field: MIC. Item: CN[C@H](CC(C)C)C(=O)N[C@H]1C(=O)N[C@@H](CC(N)=O)C(=O)N[C@H]2C(=O)N[C@H]3C(=O)N[C@H](C(=O)N[C@H](C(=O)O)c4cc(O)cc(O)c4-c4cc3ccc4O)[C@H](O)c3ccc(c(Cl)c3)Oc3cc2cc(c3OC2OC(C[N+](C)(C)Cc3ccccc3)C(O)C(O)C2OC2CC(C)(NCc3ccc(OCc4ccc(Cl)c(Cl)c4)cc3)C(O)C(C)O2)Oc2ccc(cc2Cl)[C@H]1O (some centres undefined)
Data returned: 1

====

Provide the reported MIC of each item.
- Test system: Enterococcus faecium
- Run Description: Tested in vitro for its antibacterial activity against vancomycin resistant Enterococcus faecium (CL4931)
- Assay type: functional
Numbers only, in µg/mL.

# Molecule, Unit Text, MIC
rows = [
    ("CNCC1OC(Oc2c3cc4cc2Oc2ccc(cc2Cl)[C@@H](O)[C@@H](NC(=O)[C@@H](CC(C)C)NC)C(=O)N[C@@H](CC(N)=O)C(=O)N[C@H]4C(=O)N[C@H]2C(=O)N[C@H](C(=O)N[C@H](C(=O)O)c4cc(O)cc(O)c4-c4cc2ccc4O)[C@H](O)c2ccc(c(Cl)c2)O3)C(OC2CC(C)(NCc3ccc(OCc4ccc(Cl)c(Cl)c4)cc3)C(O)C(C)O2)C(O)C1O (stereo not given in full)", "µg/mL", 32),
]

Data request: Enterococcus faecium / MIC / CN[C@H](CC(C)C)C(=O)N[C@H]1C(=O)N[C@@H](CC(N)=O)C(=O)N[C@H]2C(=O)N[C@H]3C(=O)N[C@H](C(=O)N[C@H](C(=O)O)c4cc(O)cc(O)c4-c4cc3ccc4O)[C@H](O)c3ccc(c(Cl)c3)Oc3cc2cc(c3OC2OC(CN(C)C)C(O)C(O)C2OC2CC(C)(NCc3ccc(OCc4ccc(Cl)c(Cl)c4)cc3)C(O)C(C)O2)Oc2ccc(cc2Cl)[C@H]1O (stereo not given in full) : value?
Data returned: 32
